Provenance of the data: the supplement of paper PMC5908809

System: normal NK cells expanded with K562-aAPC
Experiment: percent inhibition of viability; higher = more inhibition
Conditions: 72 h; IL-2 2.5 ng/mL; 10 nM
# Lookup of reported percent inhibition of viability keyed by entry
Dear colleague, please send the value followed by its unit.

Solved cases below.
>>> assayresult("C#Cc1cccc(Nc2ncnc3cc4c(cc23)OCCOCCOCCO4)c1 [Icotinib] (max concentration tested 10000 nM)")
"5.15%"
>>> assayresult("CC(C)Oc1ccc(C(=O)N[C@H](CNC(=O)CN(C)C)Cc2ccc(-c3cn4cccc([C@H](C)O)c4n3)cc2)cc1Cl (max concentration tested 10000 nM)")
"3.61%"
>>> assayresult("Cn1cnc2c(F)c(Nc3ccc(Br)cc3Cl)c(C(=O)NOCCO)cc21 [Selumetinib] (max concentration tested 10000 nM)")
"-3.66%"

Kindly consider the entry below.
Quick note, percent inhibition of viability for O=C(O)C(=O)O.[NH-][C@@H]1CCCC[C@H]1[NH-].[Pt+2] [Oxaliplatin] (max concentration tested 100000 nM) landed at 0.69%

* * *

# Lookup of reported percent inhibition of viability keyed by entry
Tested on: normal primary NK cells, pool 1 (3 donors) (IL-2 2.5 ng/mL)
Experiment: percent inhibition of viability; higher = more inhibition
Details: 72 h; 1000 nM
Return type: number; implicit unit %.

>>> assayresult("Cc1cnc(NC(=O)Nc2cc(Br)c(C)cc2OC[C@@H]2CNCCO2)cn1 [Rabusertib] (max concentration tested 1000 nM)")
-4.02

Kindly consider the entry below.
Quick note, percent inhibition of viability for COc1cc2ncnc(Nc3ccc(F)c(Cl)c3)c2cc1OCCCN1CCOCC1 [Gefitinib] (max concentration tested 10000 nM) landed at -11.3

* * *

Test system: normal primary NK cells, pool 2 (3 donors) (IL-2 2.5 ng/mL)
Test: percent inhibition of viability; higher = more inhibition
Conditions: 72 h; 1000 nM
# Lookup of reported percent inhibition of viability keyed by entry
Return type: number; implicit unit %.

Solved cases below.
>>> assayresult("O=C(Nc1ccc2[nH]nc(-c3ccncc3)c2c1)[C@@H]1CCN(CC(=O)N2CCN(c3ccc(-c4ncccn4)cc3)CC2)C1 (max concentration tested 10000 nM)")
5.74
>>> assayresult("COc1cc(Nc2ncc(F)c(Nc3ccc4c(n3)NC(=O)C(C)(C)O4)n2)cc(OC)c1OC [Tamatinib] (max concentration tested 10000 nM)")
5.93
>>> assayresult("COc1ccc(C[C@H](NC(=O)[C@H](C)NC(=O)CN2CCOCC2)C(=O)N[C@@H](Cc2ccccc2)C(=O)C2(C)CO2)cc1 (stereo in doubt) [ONX-0914] (max concentration tested 10000 nM)")
99.6
>>> assayresult("O=C(O)c1ccc(Nc2ncc3c(n2)-c2ccc(Cl)cc2C(c2c(F)cccc2F)=NC3)cc1 [MLN-8054] (max concentration tested 10000 nM)")
-0.41

Kindly consider the entry below.
Quick note, percent inhibition of viability for CCOc1cc2ncc(C#N)c(Nc3ccc(OCc4ccccn4)c(Cl)c3)c2cc1NC(=O)/C=C/CN(C)C [Neratinib] (max concentration tested 1000 nM) landed at 33.3

* * *

System: NK-YS (IL-2 2.5 ng/mL)
Assay: percent inhibition of viability; higher = more inhibition
Conditions: 72 h; 1000 nM
endpointName: percent inhibition of viability (%)
Return type: number; implicit unit %.

>>> assayresult("Cc1c2oc3c(C)ccc(C(=O)N[C@@H]4C(=O)N[C@H](C(C)C)C(=O)N5CCC[C@H]5C(=O)N(C)CC(=O)N(C)[C@@H](C(C)C)C(=O)O[C@@H]4C)c3nc-2c(C(=O)N[C@@H]2C(=O)N[C@H](C(C)C)C(=O)N3CCC[C@H]3C(=O)N(C)CC(=O)N(C)[C@@H](C(C)C)C(=O)O[C@@H]2C)c(N)c1=O [Dactinomycin] (max concentration tested 1000 nM)")
107
>>> assayresult("Cn1cc(C2=Nc3cc(NC(=O)C(N)C4CCCCC4)cc4c3C2=CNNC4=O)cn1 (stereo not given) (max concentration tested 10000 nM)")
75.4
>>> assayresult("CN(C)c1nc(N(C)C)nc(N(C)C)n1 [Altretamine] (max concentration tested 10000 nM)")
11.7

Quick note, percent inhibition of viability for FC(F)(F)c1ccc(/C=C/c2nc(COc3ccc(CCCCn4ccnn4)cc3)co2)cc1 [Mubritinib] (max concentration tested 1000 nM) landed at 81.2

Quick note, percent inhibition of viability for CNC(=O)c1cccc2cc(Oc3ccnc4cc(OCC5(N)CC5)c(OC)cc34)ccc12 [Lucitanib] (max concentration tested 10000 nM) landed at 9.75

Quick note, percent inhibition of viability for C=CC[C@@H]1/C=C(\C)C[C@H](C)C[C@H](OC)[C@H]2O[C@@](O)(C(=O)C(=O)N3CCCC[C@H]3C(=O)O[C@H](/C(C)=C/[C@@H]3CC[C@@H](O)[C@H](OC)C3)[C@H](C)[C@@H](O)CC1=O)[C@H](C)C[C@@H]2OC [Tacrolimus] (max concentration tested 10000 nM) landed at 5.94

Quick note, percent inhibition of viability for COc1cc([C@@H]2c3cc4c(cc3[C@@H](O[C@@H]3O[C@@H]5CO[C@@H](c6cccs6)O[C@H]5[C@H](O)[C@H]3O)[C@H]3COC(=O)[C@H]23)OCO4)cc(OC)c1O [Teniposide] (max concentration tested 10000 nM) landed at 79.9

Quick note, percent inhibition of viability for CC(=O)c1c(C)c2cnc(Nc3ccc(N4CCNCC4)cn3)nc2n(C2CCCC2)c1=O [Palbociclib] (max concentration tested 10000 nM) landed at 37.1

Quick note, percent inhibition of viability for CCc1c2c(nc3ccc(OC(=O)N4CCC(N5CCCCC5)CC4)cc13)-c1cc3c(c(=O)n1C2)COC(=O)[C@]3(O)CC [Irinotecan] (max concentration tested 10000 nM) landed at 94.2

Quick note, percent inhibition of viability for CCn1c(-c2nonc2N)nc2cnc(Oc3cccc(NC(=O)c4ccc(OCCN5CCOCC5)cc4)c3)cc21 (max concentration tested 10000 nM) landed at 48.4

* * *

Test system: NK-92 (IL-2 2.5 ng/mL)
Assay: percent inhibition of viability; higher = more inhibition
Conditions: 72 h; 1000 nM
endpointName: percent inhibition of viability (%)
Return type: number; implicit unit %.

Solved cases below.
>>> assayresult("COc1ncc(-c2ccc3nccc(-c4ccnnc4)c3c2)cc1NS(=O)(=O)c1ccc(F)cc1F [Omipalisib] (max concentration tested 1000 nM)")
69.9
>>> assayresult("Cc1cnc(NC(=O)Nc2cc(Br)c(C)cc2OC[C@@H]2CNCCO2)cn1 [Rabusertib] (max concentration tested 1000 nM)")
86.9

Kindly consider the entry below.
Quick note, percent inhibition of viability for CC(C)C[C@@H](C(=O)N[C@H](C(=O)OC1CCCC1)c1ccccc1)[C@H](O)C(=O)NO [Tosedostat] (max concentration tested 10000 nM) landed at 28.5

* * *

System: DERL-7 (IL-2 2.5 ng/mL)
Test: percent inhibition of viability; higher = more inhibition
Details: 72 h; 0.1 nM
endpointName: percent inhibition of viability (%)
Return type: number; implicit unit %.

Solved cases below.
>>> assayresult("Cn1c(=O)c(F)c(Nc2ccc(I)cc2F)c2c(=O)n(C[C@@H](O)CO)cnc21 [TAK-733] (max concentration tested 1000 nM)")
3.05
>>> assayresult("CCN1CCN(c2ccc(Nc3cc(N(C)C(=O)Nc4c(Cl)c(OC)cc(OC)c4Cl)ncn3)cc2)CC1 [NVP-BGJ398] (max concentration tested 1000 nM)")
2.66
>>> assayresult("CNC(=O)c1cc(Oc2ccc(NC(=O)Nc3cc(C(C)(C)C)nn3-c3ccc4ncccc4c3)c(F)c2)ccn1 [Rebastinib] (max concentration tested 1000 nM)")
-4.96
>>> assayresult("CCS(=O)(=O)c1cccc(-c2cc(C(=O)NC3CCN(C)CC3)c(C)c3[nH]c4ncc(C)cc4c23)c1 [TAK-901] (max concentration tested 1000 nM)")
-2.6

Kindly consider the entry below.
Quick note, percent inhibition of viability for CCOc1cc2ncc(C#N)c(Nc3ccc(OCc4ccccn4)c(Cl)c3)c2cc1NC(=O)/C=C/CN(C)C [Neratinib] (max concentration tested 1000 nM) landed at -7.68

* * *

Tested on: normal primary NK cells, pool 3 (3 donors) (IL-2 2.5 ng/mL)
Assay: relative IC50 (inflection point of fitted viability curve, relative to fitted max inhibition); higher = less sensitive
Settings: 72 h
Entry flag: MET if relative IC50 reaches 2 µM; NOT MET if it does not.

Take a look at these entries with their results.
>>> assignedclass("CN(c1ncccc1CNc1nc(Nc2ccc3c(c2)CC(=O)N3)ncc1C(F)(F)F)S(C)(=O)=O")
"MET"
>>> assignedclass("Nc1ncnc2c1nc(Cl)n2[C@@H]1O[C@H](CO)[C@@H](O)[C@H]1O [8-chloro-adenosine]")
"MET"
>>> assignedclass("COc1cc2c(NC3CCN(C(C)C)CC3)nc(C3CCCCC3)nc2cc1OCCCN1CCCC1 [UNC0638]")
"MET"

Next molecule, please.
Qu. Decide: is the reported value of relative IC50 for COCC1(CO)C(=O)C2CCN1CC2 (stereo not given) [APR-246] equal to or greater than 2 µM?
Ans. NOT MET
